Value source: patent US11999805B1

# assayed.system: SauCas9 (Staphylococcus aureus, UniProt J7RUA5)
# Construct: made in house; host or cells: E. coli BL21(star)DE3
# Sequence (J7RUA5 whole entry): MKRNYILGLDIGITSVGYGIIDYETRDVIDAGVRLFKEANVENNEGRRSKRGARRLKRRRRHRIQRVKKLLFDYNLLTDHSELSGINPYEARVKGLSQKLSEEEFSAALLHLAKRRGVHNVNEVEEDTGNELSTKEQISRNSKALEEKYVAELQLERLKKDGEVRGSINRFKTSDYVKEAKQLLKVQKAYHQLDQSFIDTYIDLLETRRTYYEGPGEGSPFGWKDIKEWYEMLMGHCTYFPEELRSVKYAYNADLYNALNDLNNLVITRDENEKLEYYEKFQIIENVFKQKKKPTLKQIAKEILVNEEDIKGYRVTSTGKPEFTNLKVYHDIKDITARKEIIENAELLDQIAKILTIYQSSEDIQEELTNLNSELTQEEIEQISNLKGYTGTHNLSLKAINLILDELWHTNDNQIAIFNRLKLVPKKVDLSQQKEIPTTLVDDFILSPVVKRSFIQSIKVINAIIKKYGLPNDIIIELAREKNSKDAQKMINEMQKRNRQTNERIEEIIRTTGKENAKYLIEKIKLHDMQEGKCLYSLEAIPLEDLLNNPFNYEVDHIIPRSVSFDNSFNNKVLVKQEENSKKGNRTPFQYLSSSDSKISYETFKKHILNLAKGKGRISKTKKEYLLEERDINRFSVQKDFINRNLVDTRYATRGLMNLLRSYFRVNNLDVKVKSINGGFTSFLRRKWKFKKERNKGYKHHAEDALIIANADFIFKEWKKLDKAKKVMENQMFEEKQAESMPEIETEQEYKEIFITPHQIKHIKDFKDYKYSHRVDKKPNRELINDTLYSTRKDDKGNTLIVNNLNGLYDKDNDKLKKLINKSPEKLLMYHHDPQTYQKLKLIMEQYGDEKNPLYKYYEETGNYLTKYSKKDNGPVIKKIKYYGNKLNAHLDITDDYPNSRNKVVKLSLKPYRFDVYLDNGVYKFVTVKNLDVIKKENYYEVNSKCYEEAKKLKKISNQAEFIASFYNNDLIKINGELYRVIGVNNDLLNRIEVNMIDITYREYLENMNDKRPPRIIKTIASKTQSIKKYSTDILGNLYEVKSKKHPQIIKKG
# measurement.protocol: HT FRET-based Cas9 cleavage activity assay, SauCas9
# Format: biochemical, S. aureus
No end group written: not given here.
Entries whose IC50 is below 70 µM take met; entries at or above 70 µM take not met.

>  <seq>
GDPNSRRSHIARLLAMSLTWYS [Peptide 99-1-1]

>  <label.value>
not met

$$$$
>  <seq>
DRSHKILLRHSGCLYRFLQRYL [Peptide 90-2-5]

>  <label.value>
not met

$$$$
>  <seq>
LNVKIENAHLTTNLSTMPLVLC [Peptide 63-2-87]

>  <label.value>
not met

$$$$
>  <seq>
VSAYSADESLLIRRRRRRRRAG [Peptide 60-1-56]

>  <label.value>
met

$$$$
>  <seq>
PNVKIGKAHLTTIMSTMPLIIC [Peptide 63-2-27]

>  <label.value>
not met

$$$$
>  <seq>
DRSQKIFLRYNRCRYRLLQRGL [Peptide 90-1-18]

>  <label.value>
met

$$$$
>  <seq>
KERRRSMMQLSVKSYTLFLGGT [Peptide 82-2-21]

>  <label.value>
met

$$$$

---

Reported pIC50 values follow for various sequences
# assayed.system: SauCas9 (Staphylococcus aureus, UniProt J7RUA5)
# Construct: made in house; host or cells: E. coli BL21(star)DE3
# measurement.protocol: HT FRET-based Cas9 cleavage activity assay, SauCas9
# Type: biochemical, S. aureus
pIC50: −log10 of the molar value. No end group written: not given here.
measured.metric: pIC50

>  <seq>
DGSLKILLRYNGCHYRLLQRSL [Peptide 90-3-50]

>  <measured.metric>
pIC50

>  <limit.operator>
<

>  <reported.result>
3.70

$$$$
>  <seq>
VRVFSAYERLLIRRRRRRRRAG [Peptide 60-1-10]

>  <measured.metric>
pIC50

>  <limit.operator>
=

>  <reported.result>
4.56

$$$$
>  <seq>
RDPNSRRSHIARLLAMSLTWYS [Peptide 99-2-2]

>  <measured.metric>
pIC50

>  <limit.operator>
=

>  <reported.result>
3.96

$$$$
>  <seq>
NRSHKILLHYNGCHYRLFLRSL [Peptide 90-1-27]

>  <measured.metric>
pIC50

>  <limit.operator>
=

>  <reported.result>
4.35

$$$$
>  <seq>
RERRRSLIQISVKSYPLFLGGT [Peptide 82-2-28]

>  <measured.metric>
pIC50

>  <limit.operator>
=

>  <reported.result>
3.81

$$$$
>  <seq>
KERHRSLMRTTVKYYSLCLGGT [Peptide 82-2-12]

>  <measured.metric>
pIC50

>  <limit.operator>
=

>  <reported.result>
4.16

$$$$

---

# assayed.system: CjeCas9 (Campylobacter jejuni subsp. jejuni serotype O:2)
# Construct: made in house; host or cells: E. coli BL21(star)DE3
# measurement.protocol: HT FRET-based Cas9 cleavage activity assay, CjeCas9
# Type: biochemical, C. jejuni
pIC50: −log10 of the molar value. No end group written: not given here.
measured.metric: pIC50

>  <seq>
DRSHKILLCYNGRNKRLLLRRL [Peptide 90-2-18]

>  <measured.metric>
pIC50

>  <limit.operator>
=

>  <reported.result>
4.13

$$$$
>  <seq>
DGSLKILLRYNGCHYRLLQRSL [Peptide 90-3-50]

>  <measured.metric>
pIC50

>  <limit.operator>
<

>  <reported.result>
3.70

$$$$
>  <seq>
RDPNSRRSHIARLLAMSLTWYS [Peptide 99-2-2]

>  <measured.metric>
pIC50

>  <limit.operator>
<

>  <reported.result>
3.70

$$$$
>  <seq>
KERRRSMMQLSVKSYTLFLGGT [Peptide 82-2-21]

>  <measured.metric>
pIC50

>  <limit.operator>
=

>  <reported.result>
4.29

$$$$
>  <seq>
NRSHKILLHYNGCHYRLFLRSL [Peptide 90-1-27]

>  <measured.metric>
pIC50

>  <limit.operator>
=

>  <reported.result>
4.23

$$$$
>  <seq>
VRVFSAYERLLIRRRRRRRRAG [Peptide 60-1-10]

>  <measured.metric>
pIC50

>  <limit.operator>
=

>  <reported.result>
4.52

$$$$
>  <seq>
VSAYSADESLLIRRRRRRRRAG [Peptide 60-1-56]

>  <measured.metric>
pIC50

>  <limit.operator>
=

>  <reported.result>
4.16

$$$$
>  <seq>
GDPNSRRSHIARLLAMSLTWYS [Peptide 99-1-1]

>  <measured.metric>
pIC50

>  <limit.operator>
=

>  <reported.result>
3.98

$$$$

---

# assayed.system: SpyCas9 (Streptococcus pyogenes serotype M1)
# Sequence (Q99ZW2 whole entry): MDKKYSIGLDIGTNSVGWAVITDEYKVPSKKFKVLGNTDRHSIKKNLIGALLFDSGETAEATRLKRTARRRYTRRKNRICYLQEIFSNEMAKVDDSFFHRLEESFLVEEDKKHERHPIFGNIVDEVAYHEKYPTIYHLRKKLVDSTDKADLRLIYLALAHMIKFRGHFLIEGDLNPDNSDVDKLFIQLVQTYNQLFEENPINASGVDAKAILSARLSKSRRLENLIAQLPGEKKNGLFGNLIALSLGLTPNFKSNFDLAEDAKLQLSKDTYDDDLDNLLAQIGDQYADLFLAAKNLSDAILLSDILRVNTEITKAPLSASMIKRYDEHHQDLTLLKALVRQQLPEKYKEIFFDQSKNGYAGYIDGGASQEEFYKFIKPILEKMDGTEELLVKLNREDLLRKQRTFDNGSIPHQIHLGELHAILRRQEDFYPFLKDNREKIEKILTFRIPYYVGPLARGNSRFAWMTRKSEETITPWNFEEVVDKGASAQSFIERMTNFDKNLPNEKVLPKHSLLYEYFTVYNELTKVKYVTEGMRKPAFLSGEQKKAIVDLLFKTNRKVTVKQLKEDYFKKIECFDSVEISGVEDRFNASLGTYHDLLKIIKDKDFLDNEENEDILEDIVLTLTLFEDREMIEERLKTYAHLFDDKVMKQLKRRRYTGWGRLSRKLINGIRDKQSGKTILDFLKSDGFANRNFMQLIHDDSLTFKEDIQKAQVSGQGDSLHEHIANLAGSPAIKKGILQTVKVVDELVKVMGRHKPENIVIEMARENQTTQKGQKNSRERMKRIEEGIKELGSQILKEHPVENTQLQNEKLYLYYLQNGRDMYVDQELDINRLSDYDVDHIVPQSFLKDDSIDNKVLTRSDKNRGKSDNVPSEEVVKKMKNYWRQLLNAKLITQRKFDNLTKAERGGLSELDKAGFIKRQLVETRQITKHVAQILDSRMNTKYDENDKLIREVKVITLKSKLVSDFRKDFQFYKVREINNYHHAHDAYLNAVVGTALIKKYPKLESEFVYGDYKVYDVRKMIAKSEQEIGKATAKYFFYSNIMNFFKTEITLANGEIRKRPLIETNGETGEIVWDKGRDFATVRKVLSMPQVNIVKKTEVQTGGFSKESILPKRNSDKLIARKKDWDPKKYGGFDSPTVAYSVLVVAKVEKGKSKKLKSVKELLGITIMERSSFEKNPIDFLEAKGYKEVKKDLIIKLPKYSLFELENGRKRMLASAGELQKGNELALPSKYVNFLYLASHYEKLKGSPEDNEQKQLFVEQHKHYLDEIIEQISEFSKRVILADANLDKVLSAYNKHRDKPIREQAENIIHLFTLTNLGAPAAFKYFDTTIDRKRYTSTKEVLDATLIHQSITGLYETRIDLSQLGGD
# Format: biochemical, S. pyogenes
# experimental.parameters: read-out: SpyCas9 IC50; FRET cleavage assay, concentration curves, 0.5 μM Cas9, 50 nM DNA substrate
No end group written: not given here.
// thresholds for IC50 classes: low: < 40 µM; middle: ≥ 40 µM and < 70 µM; high: ≥ 70 µM

>  <seq>
PNVKIGKAHLTTIMSTMPLIIC [Peptide 63-2-27]

>  <assayed.system>
SpyCas9 (Streptococcus pyogenes serotype M1)

>  <label.value>
high

$$$$
>  <seq>
RDPNSRRSHIARLLAMSLTWYS [Peptide 99-2-2]

>  <assayed.system>
SpyCas9 (Streptococcus pyogenes serotype M1)

>  <label.value>
middle

$$$$
>  <seq>
VCAFSADESLLIRRRHQRRRAG [Peptide 60]

>  <assayed.system>
SpyCas9 (Streptococcus pyogenes serotype M1)

>  <label.value>
high

$$$$
>  <seq>
DGSLKILLRYNGCHYRLLQRSL [Peptide 90-3-50]

>  <assayed.system>
SpyCas9 (Streptococcus pyogenes serotype M1)

>  <label.value>
middle

$$$$
>  <seq>
DRSQKIFLRYNRCRYRLLQRGL [Peptide 90-1-18]

>  <assayed.system>
SpyCas9 (Streptococcus pyogenes serotype M1)

>  <label.value>
middle

$$$$
>  <seq>
KERRRSMMQLSVKSYTLFLGGT [Peptide 82-2-21]

>  <assayed.system>
SpyCas9 (Streptococcus pyogenes serotype M1)

>  <label.value>
low

$$$$
>  <seq>
VRVFSAYERLLIRRRRRRRRAG [Peptide 60-1-10]

>  <assayed.system>
SpyCas9 (Streptococcus pyogenes serotype M1)

>  <label.value>
low

$$$$
>  <seq>
LNVKIENAHLTTNLSTMPLVLC [Peptide 63-2-87]

>  <assayed.system>
SpyCas9 (Streptococcus pyogenes serotype M1)

>  <label.value>
high

$$$$
>  <seq>
NRSHKILLHYNGCHYRLFLRSL [Peptide 90-1-27]

>  <assayed.system>
SpyCas9 (Streptococcus pyogenes serotype M1)

>  <label.value>
low

$$$$
>  <seq>
DRSHKILLRYNGCHYRLLQRSL [Peptide 90]

>  <assayed.system>
SpyCas9 (Streptococcus pyogenes serotype M1)

>  <label.value>
high

$$$$
>  <seq>
RERRRSLIQISVKSYPLFLGGT [Peptide 82-2-28]

>  <assayed.system>
SpyCas9 (Streptococcus pyogenes serotype M1)

>  <label.value>
high

$$$$
>  <seq>
GDPNSRRSHIARLLAMSLTWYS [Peptide 99-1-1]

>  <assayed.system>
SpyCas9 (Streptococcus pyogenes serotype M1)

>  <label.value>
middle

$$$$
>  <seq>
DRSHKILLCYNGRNKRLLLRRL [Peptide 90-2-18]

>  <assayed.system>
SpyCas9 (Streptococcus pyogenes serotype M1)

>  <label.value>
middle

$$$$
>  <seq>
KERHRSLMRTTVKYYSLCLGGT [Peptide 82-2-12]

>  <assayed.system>
SpyCas9 (Streptococcus pyogenes serotype M1)

>  <label.value>
low

$$$$
>  <seq>
DRSHKILLRHSGCLYRFLQRYL [Peptide 90-2-5]

>  <assayed.system>
SpyCas9 (Streptococcus pyogenes serotype M1)

>  <label.value>
high

$$$$
>  <seq>
VSAYSADESLLIRRRRRRRRAG [Peptide 60-1-56]

>  <assayed.system>
SpyCas9 (Streptococcus pyogenes serotype M1)

>  <label.value>
middle

$$$$

---

In this section we review reported pIC50 values for a set of sequences.
# assayed.system: CjeCas9 (Campylobacter jejuni subsp. jejuni serotype O:2, UniProt Q0P897)
# Construct: made in house; host or cells: E. coli BL21(star)DE3
# Sequence (Q0P897 whole entry): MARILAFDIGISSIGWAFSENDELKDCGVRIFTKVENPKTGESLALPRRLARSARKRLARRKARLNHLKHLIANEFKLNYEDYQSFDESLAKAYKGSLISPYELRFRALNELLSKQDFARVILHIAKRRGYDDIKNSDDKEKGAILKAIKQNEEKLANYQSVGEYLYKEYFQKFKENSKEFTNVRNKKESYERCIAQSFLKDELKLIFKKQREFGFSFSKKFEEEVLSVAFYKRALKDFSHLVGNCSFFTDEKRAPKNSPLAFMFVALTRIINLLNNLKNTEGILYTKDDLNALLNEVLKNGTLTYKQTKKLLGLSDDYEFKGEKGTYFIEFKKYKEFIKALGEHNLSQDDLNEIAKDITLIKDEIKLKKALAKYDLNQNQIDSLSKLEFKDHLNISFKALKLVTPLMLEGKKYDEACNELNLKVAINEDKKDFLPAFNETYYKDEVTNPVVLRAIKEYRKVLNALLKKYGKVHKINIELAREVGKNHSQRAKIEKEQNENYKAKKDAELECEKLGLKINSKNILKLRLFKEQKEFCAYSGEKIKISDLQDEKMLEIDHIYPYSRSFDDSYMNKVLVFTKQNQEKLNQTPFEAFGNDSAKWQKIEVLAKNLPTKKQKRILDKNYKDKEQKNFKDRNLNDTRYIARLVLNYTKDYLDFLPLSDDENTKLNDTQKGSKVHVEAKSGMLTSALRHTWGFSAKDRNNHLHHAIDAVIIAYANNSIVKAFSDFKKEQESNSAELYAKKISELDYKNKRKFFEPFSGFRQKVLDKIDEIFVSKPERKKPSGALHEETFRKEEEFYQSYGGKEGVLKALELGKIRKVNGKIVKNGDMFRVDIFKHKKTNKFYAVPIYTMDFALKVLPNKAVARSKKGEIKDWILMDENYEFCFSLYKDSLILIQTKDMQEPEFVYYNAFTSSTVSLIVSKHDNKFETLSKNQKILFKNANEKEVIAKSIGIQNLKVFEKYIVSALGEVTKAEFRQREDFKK
# measurement.protocol: HT FRET-based Cas9 cleavage activity assay, CjeCas9
# Format: biochemical, C. jejuni
pIC50: −log10 of the molar value. No end group written: not given here.
measured.metric: pIC50

>  <seq>
PNVKIGKAHLTTIMSTMPLIIC [Peptide 63-2-27]

>  <limit.operator>
<

>  <reported.result>
3.70

$$$$
>  <seq>
RERRRSLIQISVKSYPLFLGGT [Peptide 82-2-28]

>  <limit.operator>
<

>  <reported.result>
3.70

$$$$
>  <seq>
DRSHKILLRHSGCLYRFLQRYL [Peptide 90-2-5]

>  <limit.operator>
<

>  <reported.result>
3.70

$$$$
>  <seq>
KERHRSLMRTTVKYYSLCLGGT [Peptide 82-2-12]

>  <limit.operator>
=

>  <reported.result>
4.06

$$$$
>  <seq>
DRSQKIFLRYNRCRYRLLQRGL [Peptide 90-1-18]

>  <limit.operator>
=

>  <reported.result>
4.13

$$$$
>  <seq>
LNVKIENAHLTTNLSTMPLVLC [Peptide 63-2-87]

>  <limit.operator>
=

>  <reported.result>
4.04

$$$$
